- TARGET ENTITY: Anti-Müllerian hormone Receptor 2 (AMH-R2), protein target applied to the peptide microarray (UniProt Q16671)
- TEST DESCRIPTION: peptide microarray; protein target detected by anti-GST and Alexa Fluor 647 antibody, scanned signal
Non-standard residues stand in square brackets, D forms with d. No end group written: not given here.
Friendly reminder: Average below 60000 is criterion met, at or above is criterion not met.

Dear colleague, could you confirm whether Average of Y[dW]G[dW]SHA[dK][dA]NQFPN[dR][dL][dA] [AMH receptor binding peptide SEQ ID NO: 3] falls below 60000? Thanks. criterion not met

Decide: Average of [dK]GSNA[dR][dK]N[dR][dR]D[dA]SGV[dA][dL] [AMH receptor binding peptide SEQ ID NO: 20] strictly below 60000? criterion met

Is the reported Average for GG[dR]SVSAN[dL]Q[dR]E[dR][dK]V[dA]G [AMH receptor binding peptide SEQ ID NO: 19] strictly below 60000? criterion met

Please let me know if DG[dL]GSV[dL]A[dR][dK]N[dR][dR]D[dA]V[dL] [AMH receptor binding peptide SEQ ID NO: 5] shows Average below 60000. criterion not met

Each recorded value in this set is attributed to patent US20260274975A1.
